System: M. tuberculosis
experiment: Extracellular activity against M. tuberculosis in cholesterol media (Alamar Blue reduction assay)
Assay type: cell-based, Mycobacterium tuberculosis
details: Table S2; read-out: Cholesterol EC50
readout kind: EC50

Name the reported EC50 value associated with the compound Cn1ncnc1CC(=O)N1[C@@H]2CC(c3nc(-c4ccc(Cl)c(Cl)c4)no3)C[C@H]1C2 (stereo partly shown) > 30 µM
